# TEST TARGET: Rap guanine nucleotide exchange factor 3 (Homo sapiens) (UniProt O95398)
# Sequence (O95398 whole entry, looked up): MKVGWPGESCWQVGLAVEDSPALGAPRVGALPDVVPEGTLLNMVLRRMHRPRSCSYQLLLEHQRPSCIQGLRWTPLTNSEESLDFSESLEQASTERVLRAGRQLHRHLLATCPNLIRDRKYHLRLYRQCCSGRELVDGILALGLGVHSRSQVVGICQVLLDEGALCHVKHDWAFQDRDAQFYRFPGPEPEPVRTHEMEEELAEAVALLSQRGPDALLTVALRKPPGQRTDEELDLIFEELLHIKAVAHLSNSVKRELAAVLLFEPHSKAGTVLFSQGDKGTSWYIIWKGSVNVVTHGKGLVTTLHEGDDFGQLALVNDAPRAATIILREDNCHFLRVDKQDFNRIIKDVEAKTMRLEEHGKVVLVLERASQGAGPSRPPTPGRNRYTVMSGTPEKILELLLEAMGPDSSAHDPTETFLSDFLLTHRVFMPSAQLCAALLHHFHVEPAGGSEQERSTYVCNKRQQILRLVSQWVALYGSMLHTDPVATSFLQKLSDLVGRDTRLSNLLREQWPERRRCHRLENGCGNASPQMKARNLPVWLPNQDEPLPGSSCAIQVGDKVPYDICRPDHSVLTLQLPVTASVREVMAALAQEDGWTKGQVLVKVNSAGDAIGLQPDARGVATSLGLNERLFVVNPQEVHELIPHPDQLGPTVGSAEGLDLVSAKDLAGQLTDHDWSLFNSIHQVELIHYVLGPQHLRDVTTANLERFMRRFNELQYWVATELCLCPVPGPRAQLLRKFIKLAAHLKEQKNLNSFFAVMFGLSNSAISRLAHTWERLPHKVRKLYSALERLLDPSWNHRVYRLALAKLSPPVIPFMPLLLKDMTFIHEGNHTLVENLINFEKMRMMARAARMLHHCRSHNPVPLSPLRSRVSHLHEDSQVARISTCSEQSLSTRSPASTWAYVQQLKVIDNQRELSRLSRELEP
# ASSAY EXPLANATION: Counterscreen qHTS for agonist of cAMP-regulated guanine nucleotide exchange factor 3 (EPAC1) (AID 1645889); further: % of control where 0% means no effect; nearly all actives have a fitted effect of over 40% in size
# SETUP CONDITIONS: EPAC1 Rap1B-BODIPY-GDP exchange, fluorescence; series mostly up to 154 µM
Records with an inconclusive call do not appear. Calls of active or inactive are those of the source. The call rests on the fitted dose curve; in most records, active means well fitted activation curve with a large enough effect; inconclusive means small, poorly fitted or top-dose-only effect, or another doubt; inactive means no such curve, though single readings can be large or run the other way.
MEASURE NAME: activation

Cc1ccc(C2(c3noc(CN(C)Cc4ccccn4)n3)CCCC2)cc1; 1.73% [at 30.8 µM] (inactive)
Cn1c(=O)c(N)c2c3c(c(Br)ccc31)C(=O)c1ccccc1-2; inactive
O=C1C2CCCN2C(c2ccccc2F)N1c1cccc(Cl)c1 (centres undefined); 9.98% [at 30.8 µM] (inactive)
CCCCn1c(N)c(N(CCOC)C(=O)c2cccc(S(=O)(=O)N(C)c3ccc(C)cc3)c2)c(=O)[nH]c1=O; 14.6% [at 30.8 µM] (inactive)
CCCc1nc2ccc(C(=O)OC)cn2c1Cc1ccccc1; inactive

// returns reported activation for input CCC(C)Sc1nc2c(c(=O)[nH]c(=O)n2C)n1CC(O)COc1cccc2ccccc12 (centres undefined)
inactive

Now this one: O=C(Nc1nc2ccccc2c(=O)s1)c1ccc(F)cc1Cl
inactive

Now this one: Cc1noc(C)c1S(=O)(=O)Nc1ccc2c(c1)C(=O)N([C@@H](C)CO)C[C@@H](C)[C@@H](CN(C)CC1CCCCC1)OCCCC[C@@H](C)O2
inactive

Now this one: COc1ccc(CNC(=S)N/N=C/c2ccc(OC)c(OC)c2)cc1
inactive

---

# TEST TARGET: Rap guanine nucleotide exchange factor 3 (Homo sapiens) (UniProt O95398)
# ASSAY EXPLANATION: Counterscreen qHTS for agonist of cAMP-regulated guanine nucleotide exchange factor 3 (EPAC1) (AID 1645889); further: % of control where 0% means no effect; nearly all actives have a fitted effect of over 40% in size
# SETUP CONDITIONS: EPAC1 Rap1B-BODIPY-GDP exchange, fluorescence; series mostly up to 154 µM
Records with an inconclusive call do not appear. The source made the active and inactive calls. The call rests on the fitted dose curve; in most records, active means well fitted activation curve with a large enough effect; inconclusive means small, poorly fitted or top-dose-only effect, or another doubt; inactive means no such curve, though single readings can be large or run the other way.
MEASURE NAME: activation

# count of solved cases: 5
CCOC(=O)c1cc(-c2ccc(/C=C3/C(=O)N(c4ccc(C(=O)O)cc4)N=C3C)o2)ccc1Cl; inactive
COC1=CC(=O)C(C2CC(=O)c3c(O)cc(O)cc3O2)=CC1=O (centres undefined); 4.79% [at 30.8 µM] (inactive)
CCOc1ccc(N(Cc2ccc(OC)cc2)C(=O)c2ccco2)cc1; inactive
O=C(c1ccc(O)c(Br)c1)c1cc(Br)ccc1O; 26.8% [at 30.8 µM] (inactive)
CC(C)CSC1=NSC2=NC(=O)/C(=C\c3coc4ccccc4c3=O)C(=N)N12; inactive

// returns reported activation for input CCOC(=O)N(C)c1c(CC)nc2c(OCc3ccc(C(F)(F)F)cc3)cccn12
inactive

Now this one: Cc1onc(-c2c(Cl)cccc2Cl)c1C(=O)c1ccc(F)cc1
inactive

Now this one: O=C1CC(c2ccccc2)=NN1c1nc(-c2ccccc2)cs1
inactive

Now this one: CC(OC(=O)/C(C#N)=C/c1ccc(N(C)C)cc1)C(=O)N(C)c1ccccc1 (centres undefined)
20.3% [at 30.8 µM] (inactive)

Now this one: CCOc1cc(/C=C(/C#N)c2ccc(Cl)cc2)cc(Cl)c1OCC(=O)O
10.8% [at 30.8 µM] (inactive)

Now this one: O=C(O)C(c1ccccc1)N1C(=O)/C(=C/c2cccs2)SC1=S (centres undefined)
6.75% [at 30.8 µM] (inactive)

Now this one: CCOC(=O)c1c(NC(=O)/C=C/C(=O)O)sc(C)c1-c1ccc(C(C)(C)C)cc1
inactive

Now this one: CCCCc1ccc(NC(=O)CN2C(=O)C3CCCCC3C2=O)cc1 (centres undefined)
inactive

Now this one: CCOC(=O)C1(c2ccccc2)SC(C(=O)OCC)(c2ccccc2)S1 (centres undefined)
inactive

---

# TEST TARGET: Rap guanine nucleotide exchange factor 3 (Homo sapiens)
# ASSAY EXPLANATION: Counterscreen qHTS for antagonist of cAMP-regulated guanine nucleotide exchange factor 3 (EPAC1) (AID 1645888);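 further: fluorescence loss as bound BODIPY-GDP is released from Rap1B; % of control where 0% means no effect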
# SETUP CONDITIONS: Rap1B-BODIPY-GDP nucleotide exchange, fluorescence; series mostly up to 154 µM
Results filed as inconclusive are left out. Active and inactive are the calls of the source. Calls come from the whole dose curve; as a rule, active = well fitted inhibition curve with a large enough effect; inconclusive = small, poorly fitted or top-dose-only effect; inactive = no such curve, though single readings can be large or run the other way.
MEASURE NAME: activity change, negative = inhibition

CC(=O)NC(C)(c1ccccc1)c1nc(-c2cc(F)cc(F)c2)cs1 (configuration not stated); inactive
O=S(=O)(Nc1cc2nc3ccccc3nc2n1Cc1ccccc1)c1ccc(Cl)cc1; inactive
COc1cc(O)c(C=NN2C(=O)CSC2=S)c(OC)c1; inactive
Cc1ccccc1NC(=O)c1sc2nc(-c3cc4ccccc4oc3=O)[nH]c(=O)c2c1C; inactive
Cc1onc(-c2c(Cl)cccc2Cl)c1C(=O)c1ccc(F)cc1; inactive
CC(=O)NC(c1ccccc1)c1nc(-c2cccs2)cs1 (configuration not stated); inactive
Cc1cccc(NC(=O)C2CCCN(S(=O)(=O)c3ccc4c(c3)oc(=O)n4C)C2)c1 (configuration not stated); -11.5% [at 30.8 µM] (inactive)
Cc1cccc(NC(=O)Cn2c(O)c(N=NC(=O)c3ccccc3O)c3ccccc32)c1; inactive

// returns reported activity change, negative = inhibition for input O=C(N=c1ccn(-c2nc3ccccc3nc2NS(=O)(=O)c2ccccc2)cc1)c1ccccc1Cl
inactive

Now this one: Cc1ccn2c(-c3csc(NCc4ccccc4)n3)c(C)nc2c1
inactive

Now this one: COc1ccccc1N(C)S(=O)(=O)c1ccc(C(=O)NC2CCCCC2)cc1
inactive

Now this one: COC(=O)c1cn(C(=O)c2ccccc2Cl)c2ccccc12
-1.26% [at 30.8 µM] (inactive)

Now this one: O=C(N/N=C/c1ccc(-c2ccc(Cl)c(C(=O)O)c2)o1)c1cc2c(ccc3ccccc32)o1
-35.1% [at 30.8 µM] (inactive)

Now this one: CC(C)(C)c1ccc(C(=O)NCC2CCCN2S(=O)(=O)c2ccccc2)cc1 (configuration not stated)
inactive

Now this one: O=C(O)CC/C(=C\c1cccc(NC(=O)c2ccccc2Cl)c1)c1nc2ccccc2s1
inactive

Now this one: O=C(N/N=C/c1ccc(O)c(O)c1)c1ccc(CSc2cccc3cccnc23)cc1
41.8% [at 30.8 µM] (inactive)

Now this one: CCCCN(C(=O)Cn1ncc(Cl)c(Cl)c1=O)c1c(N)n(CC(C)C)c(=O)[nH]c1=O
-8.9% [at 30.8 µM] (inactive)

Now this one: CCCCn1c(N)c(N(CCOC)C(=O)c2cccc(S(=O)(=O)N(C)c3ccc(C)cc3)c2)c(=O)[nH]c1=O
3.57% [at 30.8 µM] (inactive)

Now this one: COC(=O)C1=NN(c2ccccc2)C2(S1)SC(C(C)=O)=C(C)N2c1ccccc1 (configuration not stated)
inactive

---

# TEST TARGET: Rap guanine nucleotide exchange factor 3 (Homo sapiens)
# ASSAY EXPLANATION: Counterscreen qHTS for antagonist of cAMP-regulated guanine nucleotide exchange factor 3 (EPAC1) (AID 1645888);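 further: fluorescence loss as bound BODIPY-GDP is released from Rap1B; % of control where 0% means no effect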
# SETUP CONDITIONS: Rap1B-BODIPY-GDP nucleotide exchange, fluorescence; series mostly up to 154 µM
Inconclusive results are not listed. Calls of active or inactive are those of the source. The call rests on the fitted dose curve; in most records, active means well fitted inhibition curve with a large enough effect; inconclusive means small, poorly fitted or top-dose-only effect; inactive means no such curve, though single readings can be large or run the other way.
MEASURE NAME: activity change, negative = inhibition

# count of solved cases: 5
COc1cc([N+](=O)[O-])ccc1-c1ccc(/C=C2\C(=O)ON=C2c2ccccc2)o1; inactive
N#CC(C(=O)OC1CCCCC1)c1nc2ccccc2nc1N1CCOCC1 (stereo not drawn); -21.8% [at 30.8 µM] (inactive)
CCOc1ccc(S(=O)(=O)Nc2nc3ccccc3nc2-n2ccc(=NC(=O)c3cccs3)cc2)cc1; inactive
COc1ccc(Cl)cc1NC(=O)c1c(NCc2ccc(C)o2)sc2c1CCCCC2; inactive
O=c1ccc2c(-c3ccccc3S(=O)(=O)O)c3ccc(O)c(O)c3oc-2c1O; -28.7% [at 30.8 µM] (inactive)

// returns reported activity change, negative = inhibition for input CC(C)=CCc1c(O)ccc2c1OC(c1ccc(O)c(O)c1)CC2=O (stereo not drawn)
inactive

Now this one: CC(C)c1nc2cc(Cl)ccc2n(Cc2ccccc2)c1=O
inactive

Now this one: N=C1/C(=C\c2coc3ccccc3c2=O)C(=O)N=C2SC=CN12
46.8% [at 30.8 µM] (inactive)

Now this one: COc1ccc(C(=O)c2oc3ccc(OC)cc3c2N)cc1
inactive

Now this one: Cc1ccc[n+](-c2nc([O-])sc2C=O)c1
inactive

Now this one: COc1ccc(-c2csc(C(C)(O)c3ccccc3)n2)cc1 (stereo not drawn)
8.72% [at 30.8 µM] (inactive)

Now this one: Cc1ccc(C)c(Nc2cc(C)nc(-c3ccccc3O)n2)c1
-8.51% [at 30.8 µM] (inactive)

Now this one: CC1=NCCN1S(=O)(=O)c1c(C(C)C)cc(C(C)C)cc1C(C)C
inactive
